# pEC50 annotations
- Tested on: p21 induction in HCT116 cells
- experimental_protocol: p21 induction in HCT116 cells
- Assay type: cell-based
- test_conditions: Homo sapiens, HCT-116, 24 h, HCT116 cells, 24 h compound incubation; read-out: P21_EC50
pEC50: −log10 of the molar value.
result_type: pEC50

compound=CCc1c(N2CCN(C(=O)c3ccnc(OC)c3O)CC2)c(=O)c2ncc(C)nc2n1CC(=O)Nc1ccc(C(F)(F)F)cc1Cl result_type=pEC50 reported_result="< 5.30"
compound=CCc1c(N2CCN(C(=O)c3ncnc(C)c3O)CC2)c(=O)c2nc(CN3CCOCC3)cnc2n1CC(=O)Nc1ccc(C(F)(F)F)cc1Cl result_type=pEC50 reported_result="< 5.30"
compound=CCc1c(N2CCN(C(=O)c3c(O)ccnc3OC)CC2)c(=O)c2ncc(C)nc2n1CC(=O)Nc1ccc(C(F)(F)F)cc1Cl result_type=pEC50 reported_result="5.30 to 5.70"
compound=CCc1c(N2CCN(C(=O)c3c(OC)ncc(C)c3O)[C@H]3CC[C@@H]32)c(=O)c2nc(C)c(C)nc2n1CC(=O)Nc1ccc(C(F)(F)F)cc1Cl result_type=pEC50 reported_result="> 6.30"
compound=CCc1c(N2CCN(C(=O)c3ncnc(C)c3O)CC2)c(=O)c2nc(N(C)S(C)(=O)=O)cnc2n1CC(=O)Nc1ccc(C(F)(F)F)cc1Cl result_type=pEC50 reported_result="< 5.30"
compound="CCc1c(N2CCN(C(=O)c3ncnc(C)c3O)CC2)c(=O)c2nc(N3CC[C@@H]4CC[C@@H]43)cnc2n1CC(=O)Nc1ccc(C(F)(F)F)cc1Cl (racemic)" result_type=pEC50 reported_result="> 6.30"

###

- System: p21 induction in HCT116 cells
- experimental_protocol: p21 induction in HCT116 cells
- Assay type: cell-based
- test_conditions: Homo sapiens, HCT-116, 24 h, HCT116 cells, 24 h compound incubation; read-out: P21_EC50
# EC50 annotations
result_type: EC50

compound=CCc1c(N2CCN(C(=O)c3nocc3O)CC2)c(=O)c2ncc(C)nc2n1CC(=O)Nc1ccc(C(F)(F)F)cc1Cl result_type=EC50 reported_result="> 5 µM"
compound="CCc1c(N2CCN(C(=O)c3ncnc(C)c3O)CC2)c(=O)c2nc(N3CCCC3C(C)(C)O)cnc2n1CC(=O)Nc1ccc(C(F)(F)F)cc1Cl (stereo not drawn)" result_type=EC50 reported_result="> 5 µM"
compound=CCc1c(N2CCN(C(=O)c3ncnc(C)c3O)CC2)c(=O)c2nc(N(C)C)cnc2n1CC(=O)Nc1c(F)cc(C(F)(F)F)cc1F result_type=EC50 reported_result="> 5 µM"

###

# IC50 annotations
- experimental_target: WRN (BV08), human Werner helicase (Uniprot Q14191, amino acids 517-1235 with L1074F point mutation) (Homo sapiens (Human), UniProt Q14191, L1074F)
- Sequence (Q14191 other isoform, or with tags, fused parts or gaps L1074F (already in the parent)): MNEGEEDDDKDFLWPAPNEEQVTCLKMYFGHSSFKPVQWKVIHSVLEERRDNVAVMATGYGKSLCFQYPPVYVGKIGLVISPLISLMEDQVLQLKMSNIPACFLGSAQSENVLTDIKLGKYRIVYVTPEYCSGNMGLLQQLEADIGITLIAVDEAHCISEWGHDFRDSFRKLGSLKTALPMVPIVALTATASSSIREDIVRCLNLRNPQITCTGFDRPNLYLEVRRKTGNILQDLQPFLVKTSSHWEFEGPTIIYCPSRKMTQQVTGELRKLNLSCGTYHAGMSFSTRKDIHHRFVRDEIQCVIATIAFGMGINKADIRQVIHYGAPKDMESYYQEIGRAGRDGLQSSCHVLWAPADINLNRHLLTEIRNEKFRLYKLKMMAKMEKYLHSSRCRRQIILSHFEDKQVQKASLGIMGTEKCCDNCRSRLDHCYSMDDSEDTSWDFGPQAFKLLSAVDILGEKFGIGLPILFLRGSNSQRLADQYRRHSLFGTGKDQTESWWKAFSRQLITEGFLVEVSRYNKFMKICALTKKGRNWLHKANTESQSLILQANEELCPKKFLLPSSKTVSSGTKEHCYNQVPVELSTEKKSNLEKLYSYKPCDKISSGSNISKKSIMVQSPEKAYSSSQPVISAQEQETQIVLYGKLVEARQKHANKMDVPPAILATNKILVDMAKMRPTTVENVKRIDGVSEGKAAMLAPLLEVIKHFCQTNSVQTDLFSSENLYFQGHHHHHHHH
- experimental_protocol: WRN (BV08) ADP-Glo assay
- test_conditions: class symbols A-E, read-out: ADP-Glo_hWRN_IC50
result_type: IC50

compound_string=CCc1c(N2CCN(C(=O)c3ncnc(C)c3O)[C@H]3CC[C@@H]32)c(=O)c2nc(N(C)C)cnc2n1CC(=O)Nc1ccc(OC(F)(F)F)cc1 reported_result="0.005 to 0.05 µM"
compound_string=CCc1c(N2CCN(C(=O)c3ncnc(C)c3O)CC2)c(=O)c2nc(N(C)CCN(C)C)cnc2n1CC(=O)Nc1ccc(C(F)(F)F)cc1Cl reported_result="> 0.5 µM"
compound_string=C=C(C)c1nc2c(=O)c(N3CCN(C(=O)c4ncnc(C)c4O)CC3)c(CC)n(CC(=O)Nc3ccc(C(F)(F)F)cc3Cl)c2nc1C reported_result="0.005 to 0.05 µM"
compound_string=C#C[C@H]1CN(C(=O)c2ncnc(C)c2O)CCN1c1c(CC)n(CC(=O)Nc2ccc(C(F)(F)F)cc2Cl)c2ncc(N(C)C)nc2c1=O reported_result="0.005 to 0.05 µM"
compound_string=CCc1c(N2CCN(C(=O)c3c(C#N)cnc(C)c3O)CC2)c(=O)c2nc(C)cnc2n1CC(=O)Nc1ccc(C(F)(F)F)cc1Cl reported_result="0.005 to 0.05 µM"
compound_string=CCc1c(N2CCN(C(=O)c3ccnc(OC)c3O)CC2)c(=O)c2ncc(C)nc2n1CC(=O)Nc1ccc(C(F)(F)F)cc1Cl reported_result="0.005 to 0.05 µM"
compound_string=CCc1c(N2CCN(C(=O)c3ncnc(C)c3O)CC2)c(=O)c2nc(N3CC(OC)C3)cnc2n1CC(=O)Nc1ccc(C(F)(F)F)cc1Cl reported_result="0.005 to 0.05 µM"
compound_string=CCc1c(N2CCN(C(=O)c3ncnc(C)c3O)CC2)c(=O)c2nc(N3CCn4nccc43)cnc2n1CC(=O)Nc1ccc(C(F)(F)F)cc1Cl reported_result="0.005 to 0.05 µM"
compound_string=CCc1c(N2CCN(C(=O)c3ncnc(C)c3O)CC2)c(=O)c2nc(CN3CCOCC3)cnc2n1CC(=O)Nc1ccc(C(F)(F)F)cc1Cl reported_result="0.05 to 0.1 µM"
compound_string=CCc1c(N2CCN(C(=O)c3ncnc(C)c3O)[C@H]3CC[C@@H]32)c(=O)c2cc(N(C)C)cnc2n1CC(=O)Nc1ccc(C(F)(F)F)cc1Cl reported_result="0.005 to 0.05 µM"
compound_string=CCc1c(N2CCN(C(=O)c3ncnc(C)c3O)[C@H]3CC[C@@H]32)c(=O)c2nc(C3CC3)cnc2n1CC(=O)Nc1ccc(C(F)(F)F)cc1Cl reported_result="≤ 0.005 µM"
compound_string=CCc1c(N2CCN(C(=O)c3ncnc(C)c3O)[C@H]3CC[C@@H]32)c(=O)c2nc(N3CC(C)(O)C3)cnc2n1CC(=O)Nc1ccc(C(F)(F)F)cc1Cl reported_result="0.005 to 0.05 µM"
compound_string=CCc1c(N2CCN(C(=O)c3ncnc(C)c3O)CC2)c(=O)c2nc(C=C3CCC3)cnc2n1CC(=O)Nc1ccc(C(F)(F)F)cc1Cl reported_result="≤ 0.005 µM"
compound_string=CCc1c(N2CCN(C(=O)c3ncnc(C)c3O)CC2)c(=O)c2nc(N3CC(F)C3)cnc2n1CC(=O)Nc1ccc(C(F)(F)F)cc1Cl reported_result="0.005 to 0.05 µM"
compound_string=CCc1c(N2CCN(C(=O)c3ncnc(C)c3O)CC2)c(=O)c2nc3cc(C)sc3nc2n1CC(=O)NC12CC(C(F)(F)F)(C1)C2 reported_result="0.005 to 0.05 µM"
compound_string=CCc1c(N2CCN(C(=O)c3ncnc(C)c3O)CC2)c(=O)c2nc(C#N)cnc2n1CC(=O)Nc1ccc(C(F)(F)F)cc1Cl reported_result="0.005 to 0.05 µM"
compound_string=CCc1c(N2CCN(C(=O)c3ncnc(C)c3O)CC2)c(=O)c2nc(NC3CCC3)cnc2n1CC(=O)Nc1ccc(C(F)(F)F)cc1Cl reported_result="0.005 to 0.05 µM"
compound_string=CCc1c(N2CCN(C(=O)c3ncnc(C)c3O)C[C@@H]2C)c(=O)c2nc(N3CCC3)cnc2n1CC(=O)Nc1ccc(S(F)(F)(F)(F)F)cc1Cl reported_result="0.005 to 0.05 µM"
compound_string=CCc1c(N2CCN(C(=O)c3ncnc(C)c3O)[C@H]3CC[C@@H]32)c(=O)c2nc(C3=CCOCC3)cnc2n1CC(=O)Nc1ccc(C(F)(F)F)cc1Cl reported_result="0.005 to 0.05 µM"

###

# IC50 annotations
- experimental_target: WRN (BV08), human Werner helicase (Uniprot Q14191, amino acids 517-1235 with L1074F point mutation) (Homo sapiens (Human), UniProt Q14191, L1074F)
- experimental_protocol: WRN (BV08) ADP-Glo assay
- test_conditions: class symbols A-E, read-out: ADP-Glo_hWRN_IC50
result_type: IC50

molecule=CCc1c(N2CCN(C(=O)c3ncc4c(c3O)OCC4)CC2)c(=O)c2nc(N(C)C3CC3)cnc2n1CC(=O)Nc1ccc(C(F)(F)F)cc1Cl result_type=IC50 reported_result="≤ 5 nM"
molecule=CCc1c(N2CCN(C(=O)c3ncnc(C)c3O)[C@H]3CC[C@@H]32)c(=O)c2nc(N(C)CCOC)cnc2n1CC(=O)Nc1ccc(C(F)(F)F)cc1Cl result_type=IC50 reported_result="5 to 50 nM"
molecule="CCc1c(N2CCN(C(=O)c3ncnc(C)c3O)[C@@H](C)[C@H]2C)c(=O)c2nc(N(C)C)cnc2n1CC(=O)Nc1ccc(C(F)(F)F)cc1Cl (single isomer, unassigned)" result_type=IC50 reported_result="5 to 50 nM"
molecule=[2H]C([2H])([2H])N(c1nc2c(=O)c(N3CCN(C(=O)c4ncnc(C)c4O)[C@H]4CC[C@@H]43)c(CC)n(CC(=O)Nc3ccc(C(F)(F)F)cc3F)c2nc1C)C([2H])([2H])[2H] result_type=IC50 reported_result="5 to 50 nM"
molecule="CCc1c(N2CCN(C(=O)c3ncnc(C)c3O)CC2)c(=O)c2nc(/C=C3\\CCC3C)cnc2n1CC(=O)Nc1ccc(C(F)(F)F)cc1Cl (stereo not drawn)" result_type=IC50 reported_result="≤ 5 nM"
molecule=CCc1c(N2CCN(C(=O)c3ncnc(C)c3O)CC2(C)C)c(=O)c2nc(N(C)C)cnc2n1CC(=O)Nc1ccc(C(F)(F)F)cc1Cl result_type=IC50 reported_result="5 to 50 nM"
molecule=CCc1c(N2CCN(C(=O)c3ncnc(C)c3O)CC2)c(=O)c2nc(N3CCC3)cnc2n1CC(=O)Nc1ccc(C(F)(F)F)cc1Cl result_type=IC50 reported_result="5 to 50 nM"
molecule=CCc1c(N2CCN(C(=O)c3[nH]nc(C)c3O)CC2)c(=O)c2ncc(C)nc2n1CC(=O)Nc1ccc(C(F)(F)F)cc1Cl result_type=IC50 reported_result="50 to 100 nM"
molecule=CCc1c(N2CCN(C(=O)c3ncnc(C)c3O)CC2)c(=O)c2nc(NC)cnc2n1CC(=O)Nc1ccc(C(F)(F)F)cc1Cl result_type=IC50 reported_result="5 to 50 nM"
molecule="CCc1c(N2CCN(C(=O)c3c(OC)ncc(C)c3O)C[C@@H]2C)c(=O)c2nc(N3CC[C@H]4C[C@H]43)cnc2n1CC(=O)Nc1ccc(C(F)(F)F)cc1Cl (single isomer, unassigned)" result_type=IC50 reported_result="5 to 50 nM"
molecule=CCc1c(N2CCN(C(=O)c3c(OC)ncc(C(F)F)c3O)[C@H]3CC[C@@H]32)c(=O)c2nc(N(C)C)cnc2n1CC(=O)Nc1ccc(C(F)(F)F)cc1Cl result_type=IC50 reported_result="5 to 50 nM"
molecule=CCc1c(N2CCN(C(=O)c3ncnc(C)c3O)CC2)c(=O)c2nc(-c3cnn(C)c3)cnc2n1CC(=O)Nc1ccc(C(F)(F)F)cc1Cl result_type=IC50 reported_result="5 to 50 nM"
